test: recombinant barcode read abundance after kanamycin selection (control-corrected) (log10(CPM+1)); higher = more efficient recombination; sequences stand for … in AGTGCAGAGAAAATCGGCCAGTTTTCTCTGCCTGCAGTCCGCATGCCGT…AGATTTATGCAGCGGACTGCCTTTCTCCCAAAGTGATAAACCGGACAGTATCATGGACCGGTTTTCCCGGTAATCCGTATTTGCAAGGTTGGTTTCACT; site = the 11-nt target;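 also: IS621 recombinase and bridge RNA in Escherichia coli cells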
// map recombinant barcode read abundance (log10) onto a label; ranges low range = under 0.1, mid range = from 0.1 up to 0.3, high range = 0.3 and over

TTGAGTGCTTGGGTTCTAACCTGTTGCCT (site TTGATTGCTAG)	mid range
GGTCACCCTTGGGTTCTAACCTGTTGCGG (site GGTTACCCTCC)	mid range
TGAGACTCTTGGGTTCTAACCTGTTGCCT (site TGCGACTCTAG)	low range

Category of CAGAGGCCTTGGGTTCTAACCTGTTGCCT (site CAGCGGCCTAG) , please. high range
